# TARGET: UniProt:P30968
# Sequence (P30968 whole entry): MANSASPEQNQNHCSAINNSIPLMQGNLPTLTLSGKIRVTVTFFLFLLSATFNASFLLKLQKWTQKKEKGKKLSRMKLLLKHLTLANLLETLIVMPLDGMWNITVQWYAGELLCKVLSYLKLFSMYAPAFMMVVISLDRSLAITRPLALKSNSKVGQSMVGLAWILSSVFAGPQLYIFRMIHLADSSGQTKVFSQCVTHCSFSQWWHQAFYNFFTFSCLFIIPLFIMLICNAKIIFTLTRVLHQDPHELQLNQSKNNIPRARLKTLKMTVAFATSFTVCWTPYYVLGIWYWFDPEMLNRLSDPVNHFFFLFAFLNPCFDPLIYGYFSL
# ASSAY_INFO: Antagonist activity at human GnRHR expressed in HEK293 cells assessed as inhibition of GnRH-induced luciferase response by reporter gene assay
# Type: functional, cell-based
Starred links: 1 amine or outer side, 2 acyl side, 3 side chain; linkers in the order of their positions; H or OH if unused. Non-standard residues stand in square brackets, D forms with d. Residues, ends and D or L forms follow the SMILES beside them. Phe(4-NH(5-NH2triazol-3-yl)) = Nc1nc(Nc2ccc(C[C@H](N)C(=O)O)cc2)n[nH]1; X1 = Nc1nc(Nc2ccc(C[C@@H](N[*:1])C(=O)[*:2])cc2)n[nH]1; dPhe(4-Cl) = N[C@H](Cc1ccc(Cl)cc1)C(=O)O; d2Nal = N[C@H](Cc1ccc2ccccc2c1)C(=O)O; Lys(iPr) = CC(C)NCCCC[C@H](N)C(=O)O; d3Pal = N[C@H](Cc1cccnc1)C(=O)O
REPORTED_ENDPOINT: IC50

// worked examples, IC50 included
CS[C@H](NC(=O)[C@@H](Cc1cccnc1)NC(=O)[C@@H](Cc1ccc(Cl)cc1)NC(=O)[C@@H](Cc1ccc2ccccc2c1)NC(C)=O)C(=O)N[C@@H](Cc1ccc(NC(C)=O)cc1)C(=O)N[C@H](Cc1ccc(NC(C)=O)cc1)C(=O)N[C@@H](CC(C)C)C(=O)N[C@@H](CCCCNC(C)C)C(=O)N1CCC[C@H]1C(=O)N[C@H](C)C(N)=O    1.2 nM (antagonist)
CC(=O)Nc1ccc(C[C@H](NC(=O)[C@H](CO)NC(=O)[C@@H](Cc2cccnc2)NC(=O)[C@@H](Cc2ccc(Cl)cc2)NC(=O)[C@@H](Cc2ccc3ccccc3c2)NC(C)=O)C(=O)N[C@H](Cc2ccc(NC(C)=O)cc2)C(=O)N[C@@H](CC(C)C)C(=O)N[C@@H](CCCCNC(C)C)C(=O)N2CCC[C@H]2C(=O)N[C@@H](C(N)=O)[S+](C)[O-])cc1 (stereo partly specified)    0.83 nM (antagonist)
CC(=O)Nc1ccc(C[C@H](NC(=O)[C@@H](NC(=O)[C@@H](Cc2cccnc2)NC(=O)[C@@H](Cc2ccc(Cl)cc2)NC(=O)[C@@H](Cc2ccc3ccccc3c2)NC(C)=O)[S+](C)[O-])C(=O)N[C@H](Cc2ccc(NC(C)=O)cc2)C(=O)N[C@@H](CC(C)C)C(=O)N[C@@H](CCCCNC(C)C)C(=O)N2CCC[C@H]2C(=O)N[C@H](C)C(N)=O)cc1 (stereo partly specified)    4.6 nM (antagonist)

Input: Quickly give me recorded IC50 for `CS[C@@H](NC(=O)[C@@H](Cc1cccnc1)NC(=O)[C@@H](Cc1ccc(Cl)cc1)NC(=O)[C@@H](Cc1ccc2ccccc2c1)NC(C)=O)C(=O)N[C@@H](Cc1ccc(NC(C)=O)cc1)C(=O)N[C@H](Cc1ccc(NC(C)=O)cc1)C(=O)N[C@@H](CC(C)C)C(=O)N[C@@H](CCCCNC(C)C)C(=O)N1CCC[C@H]1C(=O)N[C@H](C)C(N)=O`
Output: 25 nM (antagonist)

Input: Quickly give me recorded IC50 for CC(=O)Nc1ccc(C[C@H](NC(=O)[C@H](CO)NC(=O)[C@@H](Cc2cccnc2)NC(=O)[C@@H](Cc2ccc(Cl)cc2)NC(=O)[C@@H](Cc2ccc3ccccc3c2)NC(C)=O)C(=O)N[C@H](Cc2ccc(NC(C)=O)cc2)C(=O)N[C@@H](C(=O)N[C@@H](CCCCNC(C)C)C(=O)N2CCC[C@H]2C(=O)N[C@H](C)C(N)=O)[S+]([O-])C(C)C)cc1 (stereo partly specified)
Output: 3 nM (antagonist)

Input: Quickly give me recorded IC50 for CC(=O)N[C@H](Cc1ccc2ccccc2c1)C(=O)N[C@H](Cc1ccc(Cl)cc1)C(=O)N[C@H](Cc1cccnc1)C(=O)N[C@@H](CO)C(=O)N[C@@H](Cc1ccc(Nc2n[nH]c(N)n2)cc1)C(=O)N[C@H](Cc1ccc(Nc2n[nH]c(N)n2)cc1)C(=O)N[C@@H](CC(C)C)C(=O)N[C@@H](CCCCNC(C)C)C(=O)N1CCC[C@H]1C(=O)N[C@H](C)C(N)=O.CC(=O)O [PRAZARELIX ACETATE] (Ac-[d2Nal][dPhe(4-Cl)][d3Pal]S[Phe(4-NH(5-NH2triazol-3-yl))][X1]L[Lys(iPr)]P[dA]-NH2)
Output: 1.36 nM (antagonist)
